assay_system: UniProt P43116
Sequence (P43116 whole entry): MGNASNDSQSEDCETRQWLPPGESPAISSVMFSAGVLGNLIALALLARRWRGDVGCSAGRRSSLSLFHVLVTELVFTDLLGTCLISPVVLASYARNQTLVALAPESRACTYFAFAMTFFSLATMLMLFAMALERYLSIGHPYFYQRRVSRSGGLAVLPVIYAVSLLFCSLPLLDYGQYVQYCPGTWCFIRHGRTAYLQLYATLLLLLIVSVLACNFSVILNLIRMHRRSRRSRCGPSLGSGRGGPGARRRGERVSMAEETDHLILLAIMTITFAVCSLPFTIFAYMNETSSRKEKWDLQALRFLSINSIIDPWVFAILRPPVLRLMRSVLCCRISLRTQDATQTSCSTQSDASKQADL
assay_name: hEP2 b-arrestin assay (PathHunter HEK 293 PTGER2 b-arrestin cells)
cond: antagonistic activity, beta-arrestin assay; read-out: hEP2 b-arr IC50
Listed below: pIC50 values for each entry.
Quick note: pIC50 values are minus log10 of concentrations in mol/L.

[
  {
    "compound": "CCOc1cc(-c2cc(NCCc3ccc4c(c3)CCCO4)ncn2)sc1C(=O)O",
    "pIC50": 6.27
  },
  {
    "compound": "CCOc1cc(-c2cc(NCCc3ccc4ccccc4c3C)ncn2)ccc1C(=O)O",
    "pIC50": 6.80
  },
  {
    "compound": "COC(=O)c1ccc(-c2cc(NCCc3cc(F)c4sccc4c3)ncn2)cc1OC1CC1",
    "pIC50": 6.16
  },
  {
    "compound": "CCCc1cc(-c2cc(NCCc3c(OC)cc4ccccc4c3C)ncn2)ccc1CC(=O)O",
    "pIC50": 7.35
  },
  {
    "compound": "CCOc1cc(-c2cc(NCCc3cc4ccoc4cc3OC)ncn2)ccc1OC(C)C(=O)O (centres unmarked)",
    "pIC50": 7.54
  }
]

pIC50 reported for this compound COc1cc(-c2cc(NCCc3c(OC)cc4ccccc4c3C)ncn2)ccc1CC(=O)O : 6.84

pIC50 reported for this compound O=C(O)c1ccc(-c2cc(NCCc3cc4ccoc4cc3F)ncn2)cc1OC1CCC1 : 7.24

pIC50 reported for this compound CCOc1cc(-c2cc(NCCc3ccc4sccc4c3C)ncn2)sc1C(=O)O : 7.57

pIC50 reported for this compound CCOc1cc(-c2cc(NCCc3ccc4c(c3C)OCCO4)ncn2)ccc1C(=O)O : 7.07

pIC50 reported for this compound CSc1cc(-c2cc(NCCc3ccc4sccc4c3C)ncn2)ccc1CC(=O)O : 6.90

pIC50 reported for this compound CCOc1cc(-c2cc(NCCc3cc4cccnc4c(C)c3Cl)ncn2)sc1C(=O)O : 6.76

pIC50 reported for this compound COc1cc(-c2cc(NCCc3ccc4c(c3C)OCCO4)ncn2)ccc1OCCC(=O)O : 6.77

pIC50 reported for this compound COc1cc(-c2cc(NCCc3cc4ccsc4c(F)c3OC)ncn2)ccc1CC(=O)O : 6.90

###

assay_system: UniProtKB P35408
assay_name: cell-based
Listed below: IC50 values for each entry.

Take a look at these entries with their results.
[
  {
    "compound": "CCOc1cc2c(cc1CCNc1cc(-c3ccc(CC(=O)O)c(CC)c3)ncn1)OCCO2 [Example 512]",
    "assay_system": "UniProtKB P35408",
    "IC50": "220 nM"
  },
  {
    "compound": "CSc1cc(-c2cc(NCCc3cc(C)c4sccc4c3)ncn2)ccc1C(=O)O [Example 477]",
    "assay_system": "UniProtKB P35408",
    "IC50": "210 nM"
  },
  {
    "compound": "CC(C)Oc1cc(-c2cc(NCCc3ccc4sccc4c3F)ncn2)ccc1C(=O)O [Example 492]",
    "assay_system": "UniProtKB P35408",
    "IC50": "142 nM"
  },
  {
    "compound": "CCOc1cc(-c2cc(NCCc3ccc4scc(C)c4c3)ncn2)sc1C(=O)O [Ex 47]",
    "assay_system": "UniProtKB P35408",
    "IC50": "85 nM"
  },
  {
    "compound": "COc1cc2c(cc1CCNc1cc(-c3ccc(CC(=O)O)c(C(F)(F)F)c3)ncn1)OCCO2 [Example 525]",
    "assay_system": "UniProtKB P35408",
    "IC50": "349 nM"
  },
  {
    "compound": "CCCc1cc(-c2cc(NCCc3cc(F)c4sccc4c3)ncn2)ccc1C(N)=O [Example 457]",
    "assay_system": "UniProtKB P35408",
    "IC50": "176 nM"
  },
  {
    "compound": "CSc1cc(-c2cc(NCCc3ccc4cc[nH]c4c3)ncn2)ccc1C(=O)O [Ex 328]",
    "assay_system": "UniProtKB P35408",
    "IC50": "919 nM"
  },
  {
    "compound": "COc1cc(-c2cc(NCCc3ccc4c(c3C)OCCO4)ncn2)ccc1CC(=O)O [Example 505]",
    "assay_system": "UniProtKB P35408",
    "IC50": "929 nM"
  },
  {
    "compound": "CCc1cc(-c2cc(NCCc3c(OC)cc4c(c3C)OCCO4)ncn2)ccc1CC(=O)O [Example 444]",
    "assay_system": "UniProtKB P35408",
    "IC50": "43 nM"
  },
  {
    "compound": "CCOc1cc(-c2cc(NCCc3ccc4c(c3)CCC4)ncn2)sc1C(=O)O [Ex 44]",
    "assay_system": "UniProtKB P35408",
    "IC50": "24 nM"
  }
]

Readout IC50 for COc1cc2sccc2cc1CCNc1cc(-c2ccc(C(=O)O)c(SC)c2)ncn1 [Ex 18] , test system UniProtKB P35408, was 70 nM

Readout IC50 for CCOc1cc(-c2cc(NCCc3cc4c(cc3C)OCCO4)ncn2)sc1C(=O)O [Ex 30] , test system UniProtKB P35408, was 51 nM

Readout IC50 for CCOc1cc(-c2cc(NCCc3ccc4ccsc4c3C)ncn2)ccc1CC(=O)O [Example 472] , test system UniProtKB P35408, was 246 nM

Readout IC50 for CCCn1cc(-c2cc(NCCc3cc(F)c4sccc4c3)ncn2)cc1C(=O)O [Example 548] , test system UniProtKB P35408, was 295 nM

Readout IC50 for CCOc1cc(-c2cc(NCCc3ccc4ccccc4c3C)ncn2)ccc1-c1nnn[nH]1 [Ex 156] , test system UniProtKB P35408, was 36 nM

Readout IC50 for CCOc1cc(-c2cc(NCCc3cc(F)c4sccc4c3)ncn2)ccc1C(=O)NCCO [Example 464] , test system UniProtKB P35408, was 87 nM

Readout IC50 for O=C(O)c1ccc(-c2cc(NCCc3ccc4c(c3)CCC4)ncn2)cc1OC1CCC1 [Ex 206] , test system UniProtKB P35408, was 304 nM

Readout IC50 for Cc1csc2ccc(CCNc3cc(-c4ccc(C(=O)O)c(OC5CCC5)c4)ncn3)cc12 [Ex 306] , test system UniProtKB P35408, was 610 nM

Readout IC50 for O=C(O)c1ccc(-c2cc(NCCc3cc(F)c4sccc4c3)ncn2)cc1OC1CCC1 [Example 534] , test system UniProtKB P35408, was 70 nM

Readout IC50 for CCCc1cc(-c2cc(NCCc3ccc4ccccc4c3C)ncn2)cc(F)c1C(=O)O [Ex 74] , test system UniProtKB P35408, was 257 nM

Readout IC50 for CSc1cc(-c2cc(NCCc3cc4c(cc3OC(F)F)OCCO4)ncn2)ccc1C(=O)O [Example 495] , test system UniProtKB P35408, was 193 nM

###

Listed below: pIC50 values for each entry.
assay_system: PTGER4 (EP4) (Homo sapiens (Human))
Sequence (P35408 whole entry): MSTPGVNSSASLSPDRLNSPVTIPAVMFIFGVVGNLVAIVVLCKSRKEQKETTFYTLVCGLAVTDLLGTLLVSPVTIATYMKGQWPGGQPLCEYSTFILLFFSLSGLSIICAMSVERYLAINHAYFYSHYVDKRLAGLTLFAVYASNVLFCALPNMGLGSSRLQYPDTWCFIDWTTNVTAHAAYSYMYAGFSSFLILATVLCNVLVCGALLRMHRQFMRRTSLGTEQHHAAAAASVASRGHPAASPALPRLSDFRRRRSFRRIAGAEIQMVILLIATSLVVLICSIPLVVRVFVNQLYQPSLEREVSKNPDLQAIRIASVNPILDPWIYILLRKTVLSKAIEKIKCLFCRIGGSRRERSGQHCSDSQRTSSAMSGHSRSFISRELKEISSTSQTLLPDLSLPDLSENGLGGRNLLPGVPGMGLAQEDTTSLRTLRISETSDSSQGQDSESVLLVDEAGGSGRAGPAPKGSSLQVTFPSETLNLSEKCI
assay_name: cell-based
Quick note: pIC50 values are minus log10 of concentrations in mol/L.

Take a look at these entries with their results.
[
  {
    "molecule": "Cc1cc(-c2cc(NCCc3cc(F)c4sccc4c3)ncn2)cc(Cl)c1CC(=O)O [Example 546]",
    "pIC50": 6.78
  },
  {
    "molecule": "CCOc1cc(-c2cc(NCCc3ccc4ccccc4c3F)ncn2)ccc1OCC(=O)O [Ex 136]",
    "pIC50": 7.54
  },
  {
    "molecule": "CCOc1cc(-c2cc(NCCc3ccc4sccc4c3F)ncn2)sc1C(=O)O [Example 367]",
    "pIC50": 8.70
  },
  {
    "molecule": "O=C(O)c1ccc(-c2cc(NCCc3ccc4ccsc4c3)ncn2)cc1OC1CCC1 [Ex 147]",
    "pIC50": 6.66
  },
  {
    "molecule": "O=C(O)c1ccc(-c2cc(NCCc3cc4ccoc4cc3F)ncn2)cc1OC1CCC1 [Ex 200]",
    "pIC50": 6.29
  },
  {
    "molecule": "COc1cc(-c2cc(NCCc3cc(F)c4sccc4c3)ncn2)ccc1CCC(=O)O [Example 560]",
    "pIC50": 6.87
  }
]

pIC50 reported for this molecule COc1cc(-c2cc(NCCc3c(OC)cc4c(c3C)OCCO4)ncn2)ccc1CC(=O)O [Example 434] : 7.24

pIC50 reported for this molecule CCOc1cc(-c2cc(NCCc3c(F)c(F)c4cc(C)oc4c3OC)ncn2)sc1C(=O)O [Ex 55] : 7.60

###

assay_system: UniProt:P35408
assay_name: hEP4 cAMP assay (BT549 breast cancer cells, HTRF cAMP)
Format: cell-based
cond: antagonistic activity, PGE2 6 nM
Listed below: pIC50 values for each entry.
Quick note: pIC50 values are minus log10 of concentrations in mol/L.

[
  {
    "compound": "CC(C)Oc1cc2ccccc2cc1CCNc1cc(-c2ccc(C(=O)O)c(OC3CCC3)c2)ncn1 [Ex 264]",
    "measurement_kind": "pIC50",
    "value_measured": 6.37
  }
]

// next entry
pIC50 reported for this compound CCOc1cc(-c2cc(NCCc3ccc4cccc(F)c4c3)ncn2)ccc1C(=O)O [Ex 269] : 6.36
